Below is a list of entries, each paired with its recorded GI50 value.
# Tested on: EKVX
# assay_protocol: NCI tumour cell line growth inhibition, 48 h
Calls of active or inactive are those of the source. Rule as the data show it: active = GI50 up to about 1.1 µM and inactive = higher. Peptide text beside a SMILES is read from it.

compound: CNC(=O)OCc1nc(SSC(C)(C)C)n(C)c1COC(=O)NC
measurement_target: EKVX
GI50: 8.28 µM (inactive)
//
compound: O=C1c2ccccc2-c2nnc(-c3ccc([N+](=O)[O-])cc3)cc21
measurement_target: EKVX
GI50: > 10 µM (inactive)
//
compound: COC(=O)/C1=C/C2CC(/C=C(/c3ccccc3)C(=O)O1)C2
measurement_target: EKVX
GI50: 40.3 µM (inactive)
//
compound: [N-]=[N+]=NC1=C(N=[N+]=[N-])c2cccc3cccc(c23)C1=O
measurement_target: EKVX
GI50: > 100 µM (inactive)
//
compound: COc1cc2c(c(OC)c1OC)C(=O)[C@@H]1[C@H]2N1C(=O)NCCCl
measurement_target: EKVX
GI50: 53 µM (inactive)
//
compound: COc1ccc(OC)c(NC(=O)C(=O)Nn2c(S)nc3ccccc3c2=O)c1
measurement_target: EKVX
GI50: 82.2 µM (inactive)
//
compound: CC(=O)N(C(C)=O)n1c(-c2ccccc2)n[nH]c1=O
measurement_target: EKVX
GI50: > 100 µM (inactive)
//
compound: CN(C(=O)c1ccc(OCCCC(=O)O)c(Cl)c1Cl)C1CCCC1
measurement_target: EKVX
GI50: > 100 µM (inactive)
//
compound: O=C(O)c1ccccc1C(=O)c1ccco1
measurement_target: EKVX
GI50: > 100 µM (inactive)
//
compound: CSc1nc(-c2cc3c(c(SC)n2)CCC3)cc2c1CCC2
measurement_target: EKVX
GI50: > 100 µM (inactive)
//
compound: C[As+](C)(c1ccc(Br)c([N+](=O)[O-])c1)c1ccc(Br)c([N+](=O)[O-])c1
measurement_target: EKVX
GI50: > 100 µM (inactive)
//
compound: C=C1C(=O)OC2C/C(C)=C/CC/C(C)=C/CCC3(COC(C)=O)OC3CC12 (configuration not stated)
measurement_target: EKVX
GI50: 19.6 µM (inactive)
//
compound: N=C(N)c1ccc(OCCCCCOc2ccc(C(=N)N)cc2)cc1
measurement_target: EKVX
GI50: 18.1 µM (inactive)
//
compound: Cc1ccccc1NC(=O)C(=O)C(C#N)c1ccc(Cl)cc1 (configuration not stated)
measurement_target: EKVX
GI50: > 100 µM (inactive)
//
compound: O=C(Nc1nncs1)NS(=O)(=O)n1c(=S)sc2ccccc21
measurement_target: EKVX
GI50: 72.6 µM (inactive)
//
compound: Cc1nc2c(cc1OCc1ccccc1)C(=O)C1=C(C2=O)C2OC(=O)CC2OC1(C)C (configuration not stated)
measurement_target: EKVX
GI50: 1.55 µM (inactive)
//
compound: Clc1ccccc1-c1nnc2c(-c3ccccc3)nc3ccccc3n12
measurement_target: EKVX
GI50: > 100 µM (inactive)
//
compound: N#C/C(=C/c1cccc(Oc2ccccc2)c1)c1ccccc1
measurement_target: EKVX
GI50: > 100 µM (inactive)
//
compound: CC1=C(C(=O)NNC(=O)c2ccccc2)CC(C(=O)NNC(=O)c2ccccc2)=C(C)N1
measurement_target: EKVX
GI50: > 100 µM (inactive)
//
compound: COc1ccc(C2CCc3nc4nc(N)nc(N)c4cc3C2)cc1 (configuration not stated)
measurement_target: EKVX
GI50: 41.2 µM (inactive)
//
compound: O=C(O)CN(CCNC(=O)OCC1c2ccccc2-c2ccccc21)CCNC(=O)OCC1c2ccccc2-c2ccccc21
measurement_target: EKVX
GI50: 23.7 µM (inactive)
//
compound: COC(=O)C1=C(O)C(C(=O)OC)[C@]2(O)[C@@H](C(=O)OC)[C@H]1C[C@@H](c1ccccc1)[C@@H]2C(=O)OC (some centres not stated)
measurement_target: EKVX
GI50: 17.5 µM (inactive)
//
compound: CCOC(=O)C[C@@H]1C2(C=C[C@@]13CO3)OCC(C)(C)CO2
measurement_target: EKVX
GI50: > 100 µM (inactive)
//
compound: O=C(NCc1ccc(Cl)cc1)c1cc2sccc2nc1C(F)(F)F
measurement_target: EKVX
GI50: 34 µM (inactive)
//
compound: CC(=O)/C(=C\I)c1ccccc1
measurement_target: EKVX
GI50: 18.6 µM (inactive)
//
compound: O=C1C2C3C=C4c5ccccc5N(c5ccccc5)C4([C@@H]2C(=O)N1c1ccc(F)cc1)[C@H]1C(=O)N(c2ccc(F)cc2)C(=O)[C@@H]31 (some centres not stated)
measurement_target: EKVX
GI50: > 100 µM (inactive)
//
compound: CCOC(=O)c1nc2ccc(C(F)(F)F)cc2nc1NCc1ccc(OC)cc1
measurement_target: EKVX
GI50: > 100 µM (inactive)
//
compound: COC(=O)C1CC(C(=O)OC)c2nc3cc([N+](=O)[O-])ccc3nc21 (configuration not stated)
measurement_target: EKVX
GI50: > 81.3 µM (inactive)
//
compound: OC(c1cccnc1)C(F)(F)c1nc2ccccc2o1 (configuration not stated)
measurement_target: EKVX
GI50: > 100 µM (inactive)
//
compound: O=c1oc2ccccc2c(Nc2ccc3c(c2)S(=O)(=O)c2ccccc2O3)c1[N+](=O)[O-]
measurement_target: EKVX
GI50: 30.6 µM (inactive)
//
compound: CC(=O)NC1C(OC(C)C(=O)NC(C(=O)NC(CCC(=O)NCCCNC2c3ccccc3Nc3cccc([N+](=O)[O-])c32)C(N)=O)C(C)C)C(O)C(CO)OC1(C)OCc1ccccc1 (configuration not stated)
measurement_target: EKVX
GI50: 1.54 µM (inactive)
//
compound: CC(/C=C1\CCC(CN(C)C)C1=O)c1cccc(Br)c1 (configuration not stated)
measurement_target: EKVX
GI50: 20.9 µM (inactive)
//
compound: CCOP(=O)(/C=C\n1cnc2c(=O)n(C(C)=O)c(N)nc21)OCC
measurement_target: EKVX
GI50: > 100 µM (inactive)
//
compound: CC(=O)NC(CS)C(=O)NC(CO)C(=O)NC(CO)C(=O)NC(Cc1c[nH]c2ccccc12)C(=O)N1CCCC1C(=O)NC(CO)C(=O)NC(Cc1c[nH]c2ccccc12)C(=O)NC(Cc1c[nH]cn1)C(=O)NC(CO)C(=O)NC(Cc1c[nH]c2ccccc12)C(=O)NCC(=O)NCC(=O)NC(C)C(=O)NC(CCC(N)=O)C(=O)NC(CCCCN)C(=O)NC(C)C(=O)NC(CCCNC(=N)N)C(=O)NC(CCCCN)C(N)=O (configuration not stated) (Ac-CSSWPSWHSWGGAQKARK-NH2; configuration not given here)
measurement_target: EKVX
GI50: 28.3 µM (inactive)
//
compound: Cc1cccc(C[C@@]2(SCc3ccccc3)C(C)(C)[C@@H]3CC[C@@]2(C)C3)n1
measurement_target: EKVX
GI50: 17.6 µM (inactive)
//
compound: CCSC1=N/C(=C\c2ccco2)C(Nc2ccc(C)cc2)=N1
measurement_target: EKVX
GI50: > 100 µM (inactive)
//
compound: O=c1[nH][nH]c(=O)n1Cc1cccc(Cn2c(=O)[nH][nH]c2=O)c1
measurement_target: EKVX
GI50: > 100 µM (inactive)
